What pIC50 was measured for each of the following?
tgt: Bifunctional epoxide hydrolase 2 (Homo sapiens)
Sequence (P34913 whole entry): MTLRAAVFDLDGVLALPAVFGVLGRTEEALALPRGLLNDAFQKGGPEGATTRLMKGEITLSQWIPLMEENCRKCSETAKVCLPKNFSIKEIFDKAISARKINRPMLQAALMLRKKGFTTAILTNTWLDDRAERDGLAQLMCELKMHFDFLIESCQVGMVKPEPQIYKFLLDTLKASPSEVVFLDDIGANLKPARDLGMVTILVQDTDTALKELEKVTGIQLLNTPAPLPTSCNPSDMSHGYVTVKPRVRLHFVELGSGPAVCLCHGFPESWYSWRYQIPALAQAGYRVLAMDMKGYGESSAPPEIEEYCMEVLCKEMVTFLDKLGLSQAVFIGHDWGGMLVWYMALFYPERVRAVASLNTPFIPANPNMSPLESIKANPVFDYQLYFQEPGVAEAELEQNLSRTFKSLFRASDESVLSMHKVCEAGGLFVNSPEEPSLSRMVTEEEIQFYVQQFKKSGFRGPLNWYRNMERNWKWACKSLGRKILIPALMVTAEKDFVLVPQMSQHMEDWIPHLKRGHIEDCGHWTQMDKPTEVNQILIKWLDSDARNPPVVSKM
assay-notes: Inhibition of human recombinant soluble epoxide hydrolase expressed in baculovirus expression system by fluorimetric assay
Answers are plain numbers, as −log10 of the molar value.

CN1CCN(CCCCCOc2cccc(NC(=O)NC34CC5CC(CC(C5)C3)C4)c2)CC1
7.94
CN1CCN(CCCOc2ccc(NC(=O)NC34CC5CC(CC(C5)C3)C4)cc2)CC1
7.75
O=C(Nc1cccc(OCCCCN2CCNCC2)c1)NC12CC3CC(CC(C3)C1)C2
7.83

Next compound, pIC50 to be filled in.
Given the compound CC(=O)N1CCN(CCCOc2ccccc2NC(=O)NC23CC4CC(CC(C4)C2)C3)CC1 , what is its reported pIC50?
6.00
